Values were extracted from the supplement of paper PMC5998384.

# Tested on: HeLa Kyoto
# assay-protocol: thermal stability score vs G1/S (z-score of summed log2 fold changes over temperatures); higher = more thermally stable than in G1/S
# run-conditions: cell cycle stage: early G1 (4.5 h after nocodazole release)
measured-property: thermal stability score

MSRPLITRSPASPLNNQGIPTPAQLTKSNAPVHIDVGGHMYTSSLATLTKYPESRIGRLFDGTEPIVLDSLKQHYFIDRDGQMFRYILNFLRTSKLLIPDDFKDYTLLYEEAKYFQLQPMLLEMERWKQDRETGRFSRPCECLVVRVAPDLGERITLSGDKSLIEEVFPEIGDVMCNSVNAGWNHDSTHVIRFPLNGYCHLNSVQVLERLQQRGFEIVGSCGGGVDSSQFSEYVLRRELRRTPRVPSVIRIKQEPLD [KCTD1] : 0.414
MIPRKRYGSKNTDQGVYLGLSKTQVLSPATAGSSSSDIAPLPPPVTLVPPPPDTMSCRDRTQEFLSACKSLQTRQNGIQTNKPALRAVRQRSEFTLMAKRIGKDLSNTFAKLEKLTILAKRKSLFDDKAVEIEELTYIIKQDINSLNKQIAQLQDFVRAKGSQSGRHLQTHSNTIVVSLQSKLASMSNDFKSVLEVRTENLKQQRSRREQFSRAPVSALPLAPNHLGGGAVVLGAESHASKDVAIDMMDSRTSQQLQLIDEQDSYIQSRADTMQNIESTIVELGSIFQQLAHMVKEQEETIQRIDENVLGAQLDVEAAHSEILKYFQSVTSNRWLMVKIFLILIVFFIIFVVFLA [STX5] : 0.862
MAAGDGDVKLGTLGSGSESSNDGGSESPGDAGAAAEGGGWAAAALALLTGGGEMLLNVALVALVLLGAYRLWVRWGRRGLGAGAGAGEESPATSLPRMKKRDFSLEQLRQYDGSRNPRILLAVNGKVFDVTKGSKFYGPAGPYGIFAGRDASRGLATFCLDKDALRDEYDDLSDLNAVQMESVREWEMQFKEKYDYVGRLLKPGEEPSEYTDEEDTKDHNKQD [PGRMC2] : -0.577
MPNIVLFSGSSHQDLSQRVADRLGLELGKVVTKKFSNQETSVEIGESVRGEDVYIIQSGCGEINDNLMELLIMINACKIASSSRVTAVIPCFPYARQDKKDKSRAPISAKLVANMLSVAGADHIITMDLHASQIQGFFDIPVDNLYAEPAVLQWIRENIAEWKNCIIVSPDAGGAKRVTSIADRLNVEFALIHKERKKANEVDRMVLVGDVKDRVAILVDDMADTCGTICHAADKLLSAGATKVYAILTHGIFSGPAISRINNAAFEAVVVTNTIPQEDKMKHCTKIQVIDISMILAEAIRRTHNGESVSYLFSHVPL [PRPS2] : 3.16
MAGVRSLRCSRGCAGGCECGDKGKCSDSSLLGKRLSEDSSRHQLLQKWASMWSSMSEDASVADMERAQLEEEAAAAEERPLVFLCSGCRRPLGDSLSWVASQEDTNCILLRCVSCNVSVDKEQKLSKREKENGCVLETLCCAGCSLNLGYVYRCTPKNLDYKRDLFCLSVEAIESYVLGSSEKQIVSEDKELFNLESRVEIEKSLTQMEDVLKALQMKLWEAESKLSFATCKS [MIS18A] : -2.17

* * *

# Test system: HeLa Kyoto
# assay-protocol: solubility change mitosis vs G1/S (difference of NP-40 vs SDS log2 ratios) (log2 ratio difference); higher = more soluble in mitosis
Entries and their solubility change mitosis (log2)
measured-property: solubility change mitosis (log2)

MAAAWGSSLTAATQRAVTPWPRGRLLTASLGPQARREASSSSPEAGEGQIRLTDSCVQRLLEITEGSEFLRLQVEGGGCSGFQYKFSLDTVINPDDRVFEQGGARVVVDSDSLAFVKGAQVDFSQELIRSSFQVLNNPQAQQGCSCGSSFSIKL [ISCA2] : -0.123
MPLVVFCGLPYSGKSRRAEELRVALAAEGRAVYVVDDAAVLGAEDPAVYGDSAREKALRGALRASVERRLSRHDVVILDSLNYIKGFRYELYCLARAARTPLCLVYCVRPGGPIAGPQVAGANENPGRNVSVSWRPRAEEDGRAQAAGSSVLRELHTADSVVNGSAQADVPKELEREESGAAESPALVTPDSEKSAKHGSGAFYSPELLEALTLRFEAPDSRNRWDRPLFTLVGLEEPLPLAGIRSALFENRAPPPHQSTQSQPLASGSFLHQLDQVTSQVLAGLMEAQKSAVPGDLLTLPGTTEHLRFTRPLTMAELSRLRRQFISYTKMHPNNENLPQLANMFLQYLSQSLH [KTI12] : -0.00671
MAAAALGQIWARKLLSVPWLLCGPRRYASSSFKAADLQLEMTQKPHKKPGPGEPLVFGKTFTDHMLMVEWNDKGWGQPRIQPFQNLTLHPASSSLHYSLQLFEGMKAFKGKDQQVRLFRPWLNMDRMLRSAMRLCLPSFDKLELLECIRRLIEVDKDWVPDAAGTSLYVRPVLIGNEPSLGVSQPTRALLFVILCPVGAYFPGGSVTPVSLLADPAFIRAWVGGVGNYKLGGNYGPTVLVQQEALKRGCEQVLWLYGPDHQLTEVGTMNIFVYWTHEDGVLELVTPPLNGVILPGVVRQSLLDMAQTWGEFRVVERTITMKQLLRALEEGRVREVFGSGTACQVCPVHRILYKDRNLHIPTMENGPELILRFQKELKEIQYGIRAHEWMFPV [BCAT2] : -0.156
MAAQRPLRVLCLAGFRQSERGFREKTGALRKALRGRAELVCLSGPHPVPDPPGPEGARSDFGSCPPEEQPRGWWFSEQEADVFSALEEPAVCRGLEESLGMVAQALNRLGPFDGLLGFSQGAALAALVCALGQAGDPRFPLPRFILLVSGFCPRGIGFKESILQRPLSLPSLHVFGDTDKVIPSQESVQLASQFPGAITLTHSGGHFIPAAAPQRQAYLKFLDQFAE [OVCA2] : 0.0456
MALKQISSNKCFGGLQKVFEHDSVELNCKMKFAVYLPPKAETGKCPALYWLSGLTCTEQNFISKSGYHQSASEHGLVVIAPDTSPRGCNIKGEDESWDFGTGAGFYVDATEDPWKTNYRMYSYVTEELPQLINANFPVDPQRMSIFGHSMGGHGALICALKNPGKYKSVSAFAPICNPVLCPWGKKAFSGYLGTDQSKWKAYDATHLVKSYPGSQLDILIDQGKDDQFLLDGQLLPDNFIAACTEKKIPVVFRLQEGYDHSYYFIATFITDHIRHHAKYLNA [ESD] : -0.0867

* * *

# System: HeLa Kyoto
# assay-protocol: melting temperature (median over replicates), in situ; higher = more thermally stable
# run-conditions: cell cycle stage: mitosis
Quick list: melting temperature per entry.
measured-property: melting temperature (°C)

MAAQRPLRVLCLAGFRQSERGFREKTGALRKALRGRAELVCLSGPHPVPDPPGPEGARSDFGSCPPEEQPRGWWFSEQEADVFSALEEPAVCRGLEESLGMVAQALNRLGPFDGLLGFSQGAALAALVCALGQAGDPRFPLPRFILLVSGFCPRGIGFKESILQRPLSLPSLHVFGDTDKVIPSQESVQLASQFPGAITLTHSGGHFIPAAAPQRQAYLKFLDQFAE [OVCA2] : 51.5
MSASAPAAEGEGTPTQPASEKEPEMPGPREESEEEEDEDDEEEEEEEKEKSLIVEGKREKKKVERLTMQVSSLQREPFTIAQGKGQKLCEIERIHFFLSKKKTDELRNLHKLLYNRPGTVSSLKKNVGQFSGFPFEKGSVQYKKKEEMLKKFRNAMLKSICEVLDLERSGVNSELVKRILNFLMHPKPSGKPLPKSKKTCSKGSKKERNSSGMARKAKRTKCPEILSDESSSDEDEKKNKEESSDDEDKESEEEPPKKTAKREKPKQKATSKSKKSVKSANVKKADSSTTKKNQNSSKKESESEDSSDDEPLIKKLKKPPTDEELKETIKKLLASANLEEVTMKQICKKVYENYPTYDLTERKDFIKTTVKELIS : 50.7
MAAPVDLELKKAFTELQAKVIDTQQKVKLADIQIEQLNRTKKHAHLTDTEIMTLVDETNMYEGVGRMFILQSKEAIHSQLLEKQKIAEEKIKELEQKKSYLERSVKEAEDNIREMLMARRAQ [PFDN1] : 52.4
MSQGDSNPAAIPHAAEDIQGDDRWMSQHNRFVLDCKDKEPDVLFVGDSMVQLMQQYEIWRELFSPLHALNFGIGGDTTRHVLWRLKNGELENIKPKVIVVWVGTNNHENTAEEVAGGIEAIVQLINTRQPQAKIIVLGLLPRGEKPNPLRQKNAKVNQLLKVSLPKLANVQLLDTDGGFVHSDGAISCHDMFDFLHLTGGGYAKICKPLHELIMQLLEETPEEKQTTIA [PAFAH1B2] : 51

* * *

# Test system: HeLa Kyoto
# assay-protocol: solubility in G1/S (NP-40 vs SDS abundance) (log2 ratio); higher = more soluble
# run-conditions: cell cycle stage: G1/S
Catalogue of solubility in G1/S (log2) readings, one per entry.
measured-property: solubility in G1/S (log2)

MRRVTLFLNGSPKNGKVVAVYGTLSDLLSVASSKLGIKATSVYNGKGGLIDDIALIRDDDVLFVCEGEPFIDPQTDSKPPEGLLGFHTDWLTLNVGGRYFTTTRSTLVNKEPDSMLAHMFKDKGVWGNKQDHRGAFLIDRSPEYFEPILNYLRHGQLIVNDGINLLGVLEEARFFGIDSLIEHLEVAIKNSQPPEDHSPISRKEFVRFLLATPTKSELRCQGLNFSGADLSRLDLRYINFKMANLSRCNLAHANLCCANLERADLSGSVLDCANLQGVKMLCSNAEGASLKLCNFEDPSGLKANLEGANLKGVDMEGSQMTGINLRVATLKNAKLKNCNLRGATLAGTDLENCDLSGCDLQEANLRGSNVKGAIFEEMLTPLHMSQSVR [KCTD9] : 0.0627
MGRTSKDKRDVYYRLAKENGWRARSAFKLLQLDKEFQLFQGVTRAVDLCAAPGSWSQVLSQKIGGQGSGHVVAVDLQAMAPLPGVVQIQGDITQLSTAKEIIQHFKGCPADLVVCDGAPDVTGLHDVDEYMQAQLLLAALNIATHVLKPGGCFVAKIFRGRDVTLLYSQLQVFFSSVLCAKPRSSRNSSIEAFAVCQGYDPPEGFIPDLSKPLLDHSYDPDFNQLDGPTRIIVPFVTCGDLSSYDSDRSYPLDLEGGSEYKYTPPTQPPISPPYQEACTLKRKGQLAKEIRPQDCPISRVDTFPQPLAAPQCHTLLAPEMEDNEMSCSP [FTSJ1] : 0.332
